# experiment: qHTS assay to identify small molecule antagonists of the estrogen receptor alpha (ER-alpha) signaling pathway using the BG1 cell line in the presence of 0.1 nM 17-beta-estradiol - cell viability counter screen (AID 1259241); also: nearly all actives have a fitted effect of over 40% in size
# protocol_conditions: VM7Luc4E2 (BG1) viability, CellTiter-Fluor protease, 22 h, 0.1 nM estradiol agonist added; series mostly up to 92.4 µM
Records with an inconclusive call do not appear. Activity calls are given as the source filed them. Calls follow the shape of the dose curve; as a rule, active = well fitted cell-killing curve with a large enough effect in the repeat runs; inconclusive = weak or mixed curves, or effect the other way; inactive = flat fitted curve, though single readings scatter.
Labels: active, inactive

- molecule: "C=C(C)C(=O)OCC(CC)(COC(=O)C(=C)C)COC(=O)C(=C)C"
  class_label: "inactive"
- molecule: "CCCCCCCCCCC=CC1CC(=O)OC1=O (centres undefined)"
  class_label: "inactive"
- molecule: "CCCCCCCCC"
  class_label: "inactive"
- molecule: "Cc1ccc(C(=O)O)o1"
  class_label: "inactive"
- molecule: "CC#C[C@]1(O)CC[C@H]2[C@@H]3CCC4=CC(=O)CCC4=C3[C@@H](c3ccc(N(C)C)cc3)C[C@@]21C"
  class_label: "inactive"
- molecule: "Cc1ccc(C)c(C)c1"
  class_label: "inactive"
- molecule: "C=C1CC[C@H](O)CC1=C/C=C1\\CCC[C@]2(C)[C@@H]([C@H](C)/C=C/[C@H](C)C(C)C)CC[C@@H]12"
  class_label: "inactive"
- molecule: "Cc1cc(O)cc(C)c1Cl"
  class_label: "inactive"
- molecule: "O=[N+]([O-])c1cc(N(CCO)CCO)ccc1NCCO"
  class_label: "active"

====

# target_system: Cytochrome P450 2D6 (Homo sapiens)
# experiment: Cytochrome P450 Family 2 Subfamily D Member 6 (CYP2D6) small molecule antagonists: luciferase reporter qHTS assay (AID 1671196); also: nearly all actives have a fitted effect of over 50% in size
# protocol_conditions: P450-Glo CYP2D6 enzyme assay, luciferin luminescence, 1 h; series mostly up to 115 µM
Records with an inconclusive call do not appear. The source made the active and inactive calls. Calls follow the shape of the dose curve; as a rule, active = well fitted inhibition curve with a large enough effect in the repeat runs; inconclusive = weak or mixed curves; inactive = no such curve, though single readings can be large or run the other way.
Labels: True (active), False (inactive)

- compound: "c1ccc2ccccc2c1"
  class_label: "False"
- compound: "C=C(C)C(=O)OCCCCCC"
  class_label: "False"
- compound: "O=C(O)c1ccc([N+](=O)[O-])cc1"
  class_label: "False"
- compound: "O=c1c(-c2ccc(O)cc2)coc2cc(O)ccc12"
  class_label: "False"
- compound: "O=Nc1ccc(O)cc1"
  class_label: "True"
- compound: "C/C=C(C)/C=C/C=C(C)C"
  class_label: "False"
- compound: "CCCCCCOC(C)=O"
  class_label: "False"
- compound: "Cc1ccc(N)c(S(=O)(=O)O)c1"
  class_label: "False"
- compound: "OC1CCCC1"
  class_label: "False"
- compound: "CC(=O)CCc1ccccc1"
  class_label: "False"
- compound: "CCCCC(CC)COC(C)=O (stereo unspecified)"
  class_label: "False"
- compound: "CCCCCCCCCC(=O)O"
  class_label: "False"
- compound: "CC(C)n1c(/C=C/[C@@H](O)C[C@@H](O)CC(=O)O)c(-c2ccc(F)cc2)c2ccccc21"
  class_label: "False"
- compound: "O=[N+]([O-])C(CO)(CO)CO"
  class_label: "False"
- compound: "O=C(Oc1ccccc1)c1ccc(O)cc1"
  class_label: "False"
- compound: "C=C(C#N)C(=O)OCC"
  class_label: "True"
- compound: "Cc1ccc(C(=O)O)o1"
  class_label: "False"
- compound: "OCC1CCCO1 (stereo unspecified)"
  class_label: "False"
- compound: "CC1(C)O[C@@H]2C[C@H]3[C@@H]4C[C@H](F)C5=CC(=O)CC[C@]5(C)[C@H]4[C@@H](O)C[C@]3(C)[C@]2(C(=O)CO)O1"
  class_label: "False"
- compound: "CC(C)(C)C1CCC(O)CC1 (stereo unspecified)"
  class_label: "False"
- compound: "O=S(=O)(O)c1cc(S(=O)(=O)O)c2c(N=Nc3ccccc3)c(O)ccc2c1"
  class_label: "False"

====

Entries and their measured max activation follow.
# target_system: Nuclear receptor subfamily 1 group I member 2 (Rattus norvegicus) (UniProt Q9R1A7)
# Sequence (Q9R1A7 whole entry, looked up): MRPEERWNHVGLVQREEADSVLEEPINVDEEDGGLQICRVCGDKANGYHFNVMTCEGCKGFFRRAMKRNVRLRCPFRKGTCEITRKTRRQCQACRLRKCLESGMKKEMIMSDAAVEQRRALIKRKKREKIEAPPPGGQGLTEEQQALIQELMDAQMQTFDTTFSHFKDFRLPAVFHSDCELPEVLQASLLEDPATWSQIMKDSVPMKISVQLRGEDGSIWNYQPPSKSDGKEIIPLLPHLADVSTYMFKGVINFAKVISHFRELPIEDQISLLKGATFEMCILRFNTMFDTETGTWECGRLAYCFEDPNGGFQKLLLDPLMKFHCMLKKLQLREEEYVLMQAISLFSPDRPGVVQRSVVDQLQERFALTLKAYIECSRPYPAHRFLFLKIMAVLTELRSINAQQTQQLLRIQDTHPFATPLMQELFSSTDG
# experiment: Rat pregnane X receptor (rPXR) activation by small molecules, qHTS assay (AID 1346983); also: % is scaled to controls: 0 for no effect and ±100 for the full control effect; nearly all actives have a fitted effect of over 20% in size
# protocol_conditions: rPXR luciferase reporter cells, One-Glo luminescence, 24 h; stronger effect = higher value
Records with an inconclusive call do not appear.

- sample_smiles: "CNC[C@H](O)[C@@H](O)[C@H](O)[C@H](O)CO"
  unit_of_measurement: "%"
  max activation: -2.23
- sample_smiles: "NCCNCCNCCNCCN"
  unit_of_measurement: "%"
  max activation: -4.35
- sample_smiles: "Nc1cc(-c2ccncc2)c[nH]c1=O"
  unit_of_measurement: "%"
  max activation: -1.94

====

# experiment: qHTS assay to identify small molecule agonists of H2AX - cell viability counter screen (AID 1224847); also: nearly all actives have a fitted effect of over 30% in size
# protocol_conditions: CHO-K1 viability, CellTiter-Glo luminescence, 3 h; series mostly up to 154 µM
Records with an inconclusive call do not appear. Active and inactive are the calls of the source. Calls follow the shape of the full dose curve.
Labels: active, inactive

- compound: "NCc1cccc(CN)c1"
  class_label: "inactive"
- compound: "CC1=CC[C@H]2C[C@@H]1C2(C)C"
  class_label: "inactive"
- compound: "C[C@@H](O)[C@H]1C(=O)N2C(C(=O)O)=C(S[C@@H]3CN[C@H](C(=O)N(C)C)C3)[C@H](C)[C@H]12"
  class_label: "inactive"
- compound: "Clc1cc(Cl)c(Cl)cc1Cl"
  class_label: "inactive"
- compound: "CCOC(=O)C1OC1c1ccccc1 (centres undefined)"
  class_label: "inactive"
- compound: "C=C(C)C(=O)OCCCCCC"
  class_label: "inactive"
- compound: "CCCCC/C=C\\C/C=C\\CCCCCCCC(=O)OC"
  class_label: "inactive"
- compound: "c1ccc2ccccc2c1"
  class_label: "inactive"
- compound: "C[C@@H]1O[C@@H](OC[C@H]2O[C@@H](Oc3c(-c4ccc(O)c(O)c4)oc4cc(O)cc(O)c4c3=O)[C@H](O)[C@@H](O)[C@@H]2O)[C@H](O)[C@H](O)[C@H]1O"
  class_label: "inactive"
- compound: "CCCCC(CC)C(=O)OCCOCCOCCOC(=O)C(CC)CCCC (centres undefined)"
  class_label: "inactive"
- compound: "CCCCC(CC)COC(=O)CCCCCCCC(=O)OCC(CC)CCCC (centres undefined)"
  class_label: "inactive"
- compound: "Cn1c([N+](=O)[O-])cnc1COC(N)=O"
  class_label: "inactive"
- compound: "CCCCCCCCCCCCOCC1CO1 (centres undefined)"
  class_label: "inactive"
- compound: "CCCCCCCCCCC=CC1CC(=O)OC1=O (centres undefined)"
  class_label: "inactive"
- compound: "CS(=O)(=O)c1ccc([C@@H](O)[C@@H](CO)NC(=O)C(Cl)Cl)cc1"
  class_label: "inactive"
- compound: "COC(=O)c1ccc(C(=O)OC)cc1"
  class_label: "inactive"
- compound: "O=C(c1cc(O)c(O)c(O)c1)c1ccc(O)c(O)c1O"
  class_label: "inactive"
- compound: "CCCCC(CC)COC(=O)/C=C\\C(=O)OCC(CC)CCCC (centres undefined)"
  class_label: "inactive"
- compound: "CCCCOCCO"
  class_label: "inactive"
- compound: "CC(C)(N=C=O)c1cccc(C(C)(C)N=C=O)c1"
  class_label: "inactive"
- compound: "O=C1N=C(O)CN1/N=C/c1ccc(-c2ccc([N+](=O)[O-])cc2)o1"
  class_label: "inactive"
- compound: "CC(=O)[C@@]1(O)CC[C@H]2[C@@H]3CCC4=CC(=O)CC[C@]4(C)[C@H]3CC[C@@]21C"
  class_label: "inactive"
- compound: "CC(C)NCC(O)COc1cccc2ccccc12 (centres undefined)"
  class_label: "inactive"
- compound: "Oc1c(Cl)cc(Cl)c(Cl)c1Cl"
  class_label: "active"
- compound: "S=c1nc[nH]c2nc[nH]c12"
  class_label: "inactive"
- compound: "CN(C)c1cccc(O)c1"
  class_label: "inactive"
- compound: "O=S(=O)(O)c1cc(S(=O)(=O)O)c2c(N=Nc3ccccc3)c(O)ccc2c1"
  class_label: "inactive"
- compound: "CC1CC(OC(=O)c2ccccc2O)CC(C)(C)C1 (centres undefined)"
  class_label: "inactive"
- compound: "OCC1CCCO1 (centres undefined)"
  class_label: "inactive"
- compound: "CS(=O)(=O)Nc1ccc([N+](=O)[O-])cc1Oc1ccccc1"
  class_label: "inactive"
- compound: "CCCCOCCOCCOC(=O)CCCCC(=O)OCCOCCOCCCC"
  class_label: "inactive"
- compound: "O=Nc1ccc(O)cc1"
  class_label: "inactive"
- compound: "O=C1O[C@H](CO)[C@@H](O)[C@H](O)[C@H]1O"
  class_label: "inactive"
- compound: "O=[N+]([O-])c1cccc(Cl)c1"
  class_label: "inactive"
- compound: "C=CC(=O)OCCCCCCCC(C)C"
  class_label: "inactive"
- compound: "CC1(C)O[C@@H]2C[C@H]3[C@@H]4C[C@H](F)C5=CC(=O)CC[C@]5(C)[C@H]4[C@@H](O)C[C@]3(C)[C@]2(C(=O)CO)O1"
  class_label: "inactive"
- compound: "Oc1ccc(OCc2ccccc2)cc1"
  class_label: "inactive"
- compound: "CCCCC(CC)COC(C)=O (centres undefined)"
  class_label: "inactive"
- compound: "NC(=O)/N=N/C(N)=O"
  class_label: "inactive"
- compound: "O=C(O)c1ccc([N+](=O)[O-])cc1"
  class_label: "inactive"
- compound: "O=C(O)c1cc(-c2ccccc2)nc2ccccc12"
  class_label: "inactive"
- compound: "CCc1ccc(O)cc1"
  class_label: "inactive"
- compound: "OC[C@@H](O)[C@H](O)[C@H](O)[C@@H](O)CO"
  class_label: "inactive"
- compound: "CCCCCCOC(C)=O"
  class_label: "inactive"
- compound: "CC1COc2ccccc2N1C(=O)C(Cl)Cl (centres undefined)"
  class_label: "inactive"
- compound: "CC(=O)Nc1ccc(C(=O)O)cc1"
  class_label: "inactive"
- compound: "OC1CCCC1"
  class_label: "inactive"
- compound: "CCCCNC(N)=O"
  class_label: "inactive"
- compound: "O=C(Cl)c1c(Cl)c(Cl)c(C(=O)Cl)c(Cl)c1Cl"
  class_label: "inactive"
- compound: "CCCCCCCCC"
  class_label: "inactive"
- compound: "Cc1ccc(N)c(S(=O)(=O)O)c1"
  class_label: "inactive"
- compound: "Nc1c(S(=O)(=O)O)cc(Br)c2c1C(=O)c1ccccc1C2=O"
  class_label: "inactive"
- compound: "Cc1cc(NS(=O)(=O)c2ccc(N)cc2)no1"
  class_label: "inactive"
- compound: "CC1=C(/C=C/C(C)=C/C=C/C(C)=C/CO)C(C)(C)CCC1"
  class_label: "inactive"
